Attribution: ChEMBL document CHEMBL1126005

Give Ki for every item shown.
target: Adenosine A2 receptor (Rattus norvegicus, UniProt P29276+P30543)
Enter your answer as a number in µM; do not include the unit.

Please list Ki recorded for the compound OC[C@H]1OC(n2cnc3c(NC4CCC5CCCCC5C4)nc(O)nc32)[C@H](O)[C@@H]1O (some centres not stated)
140

Please list Ki recorded for the compound OC[C@H]1OC(n2cnc3c(NC4CC5CCC4C5)nc(O)nc32)[C@H](O)[C@@H]1O (some centres not stated)
80

Please list Ki recorded for the compound OC[C@H]1OC(n2cnc3c(NC4CCCCC4)nc(O)nc32)[C@H](O)[C@@H]1O (some centres not stated)
15

Please list Ki recorded for the compound OC[C@H]1OC(n2cnc3c(NC4CCCCCC4)nc(O)nc32)[C@H](O)[C@@H]1O (some centres not stated)
6

Please list Ki recorded for the compound OC[C@H]1OC(n2cnc3c(NC4CCCC4)nc(O)nc32)[C@H](O)[C@@H]1O (some centres not stated)
7.5

Please list Ki recorded for the compound OC[C@H]1OC(n2cnc3c(NC4CCC4)nc(O)nc32)[C@H](O)[C@@H]1O (some centres not stated)
15

Please list Ki recorded for the compound OC[C@H]1OC(n2cnc3c(NC4CCCC4)nc(I)nc32)[C@H](O)[C@@H]1O (some centres not stated)
40
